# experimental_target: endogenous ENaC in mpkCCDc14 cells (Mus musculus, UniProt Q61180+Q9WU38+Q9WU39)
# Construct: endogenous ENaC in a mouse cortical collecting duct (mpkCCDc14) cell line; endogenous in cells; host or cells: mpkCCDc14 mouse cortical collecting duct cell line
# Sequence (Q61180 1-205): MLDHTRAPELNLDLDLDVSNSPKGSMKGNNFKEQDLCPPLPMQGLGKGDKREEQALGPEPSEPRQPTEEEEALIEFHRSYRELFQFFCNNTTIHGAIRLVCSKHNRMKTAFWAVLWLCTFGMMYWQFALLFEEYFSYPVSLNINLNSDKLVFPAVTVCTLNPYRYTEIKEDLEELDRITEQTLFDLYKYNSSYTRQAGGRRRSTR
# Sequence (Q61180 232-699): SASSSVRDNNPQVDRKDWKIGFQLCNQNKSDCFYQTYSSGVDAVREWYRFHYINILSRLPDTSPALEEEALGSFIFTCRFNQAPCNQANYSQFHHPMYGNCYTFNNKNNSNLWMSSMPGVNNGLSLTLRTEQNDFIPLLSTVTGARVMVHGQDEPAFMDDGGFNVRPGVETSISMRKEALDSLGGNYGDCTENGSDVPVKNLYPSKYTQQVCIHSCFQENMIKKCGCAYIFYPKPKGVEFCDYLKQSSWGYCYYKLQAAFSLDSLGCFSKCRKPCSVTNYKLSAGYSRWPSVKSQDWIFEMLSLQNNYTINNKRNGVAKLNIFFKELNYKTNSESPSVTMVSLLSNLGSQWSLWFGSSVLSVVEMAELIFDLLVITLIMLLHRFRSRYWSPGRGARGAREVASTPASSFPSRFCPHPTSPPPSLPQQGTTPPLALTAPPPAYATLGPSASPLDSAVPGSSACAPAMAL
# Sequence (Q9WU38 whole entry): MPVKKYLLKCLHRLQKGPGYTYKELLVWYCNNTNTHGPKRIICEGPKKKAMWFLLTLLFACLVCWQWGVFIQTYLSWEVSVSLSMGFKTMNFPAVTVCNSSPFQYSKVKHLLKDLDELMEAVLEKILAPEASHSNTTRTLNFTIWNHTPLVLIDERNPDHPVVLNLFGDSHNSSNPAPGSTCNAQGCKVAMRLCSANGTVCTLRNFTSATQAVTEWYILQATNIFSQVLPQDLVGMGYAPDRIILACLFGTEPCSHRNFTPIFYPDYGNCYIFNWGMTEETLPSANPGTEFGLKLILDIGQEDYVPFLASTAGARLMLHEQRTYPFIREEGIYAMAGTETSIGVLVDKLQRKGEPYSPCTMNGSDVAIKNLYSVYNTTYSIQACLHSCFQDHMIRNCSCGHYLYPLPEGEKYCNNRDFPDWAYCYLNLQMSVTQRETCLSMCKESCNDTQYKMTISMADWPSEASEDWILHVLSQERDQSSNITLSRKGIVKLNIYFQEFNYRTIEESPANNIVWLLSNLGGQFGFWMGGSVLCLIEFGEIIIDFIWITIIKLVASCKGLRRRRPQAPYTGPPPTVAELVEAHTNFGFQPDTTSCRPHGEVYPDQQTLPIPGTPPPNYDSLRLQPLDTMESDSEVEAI
# Sequence (Q9WU39 1-143): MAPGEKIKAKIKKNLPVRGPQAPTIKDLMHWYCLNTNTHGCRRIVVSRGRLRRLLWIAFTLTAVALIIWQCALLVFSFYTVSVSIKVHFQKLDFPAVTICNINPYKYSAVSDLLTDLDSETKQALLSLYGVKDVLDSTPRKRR
# Sequence (Q9WU39 187-655): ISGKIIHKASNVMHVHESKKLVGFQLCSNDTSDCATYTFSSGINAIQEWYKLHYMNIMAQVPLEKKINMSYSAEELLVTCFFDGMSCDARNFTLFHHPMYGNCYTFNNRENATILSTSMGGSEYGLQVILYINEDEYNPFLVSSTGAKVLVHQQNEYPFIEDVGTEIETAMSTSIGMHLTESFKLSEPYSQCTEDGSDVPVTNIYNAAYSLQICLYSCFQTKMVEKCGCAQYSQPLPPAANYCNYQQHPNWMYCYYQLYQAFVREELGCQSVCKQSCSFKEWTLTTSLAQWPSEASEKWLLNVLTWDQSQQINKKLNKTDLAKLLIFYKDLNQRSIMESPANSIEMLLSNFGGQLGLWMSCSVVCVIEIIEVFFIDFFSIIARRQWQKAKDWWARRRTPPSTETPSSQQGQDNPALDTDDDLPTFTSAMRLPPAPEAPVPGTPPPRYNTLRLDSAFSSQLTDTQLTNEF
# method: Amiloride-sensitive short circuit current in mpkCCDc14 monolayers, Ussing chamber
# Format: cell-based
# settings: mpkCCDc14 cells; stated jointly for HBE and mpkCCDc14; read-out: apparent Ki, inhibition of endogenous ENaC activity
pKi: −log10 of the molar value.
quantity_kind: pKi

State its pKi for this substance: Ac-EAGSMRSTWEGTPPRFLNLIPLLVFNENEKGKARDFFTGRKRK-NH2 [γ-43]
~5.70

---

# experimental_target: mouse ENaC (Mus musculus, UniProt Q61180+Q9WU38+Q9WU39, DEL206-231)
# Construct: expressed in transfected cells; host or cells: Xenopus laevis oocytes (cRNA injection)
# Sequence (Q61180 with tags, fused parts or gaps DEL206-231): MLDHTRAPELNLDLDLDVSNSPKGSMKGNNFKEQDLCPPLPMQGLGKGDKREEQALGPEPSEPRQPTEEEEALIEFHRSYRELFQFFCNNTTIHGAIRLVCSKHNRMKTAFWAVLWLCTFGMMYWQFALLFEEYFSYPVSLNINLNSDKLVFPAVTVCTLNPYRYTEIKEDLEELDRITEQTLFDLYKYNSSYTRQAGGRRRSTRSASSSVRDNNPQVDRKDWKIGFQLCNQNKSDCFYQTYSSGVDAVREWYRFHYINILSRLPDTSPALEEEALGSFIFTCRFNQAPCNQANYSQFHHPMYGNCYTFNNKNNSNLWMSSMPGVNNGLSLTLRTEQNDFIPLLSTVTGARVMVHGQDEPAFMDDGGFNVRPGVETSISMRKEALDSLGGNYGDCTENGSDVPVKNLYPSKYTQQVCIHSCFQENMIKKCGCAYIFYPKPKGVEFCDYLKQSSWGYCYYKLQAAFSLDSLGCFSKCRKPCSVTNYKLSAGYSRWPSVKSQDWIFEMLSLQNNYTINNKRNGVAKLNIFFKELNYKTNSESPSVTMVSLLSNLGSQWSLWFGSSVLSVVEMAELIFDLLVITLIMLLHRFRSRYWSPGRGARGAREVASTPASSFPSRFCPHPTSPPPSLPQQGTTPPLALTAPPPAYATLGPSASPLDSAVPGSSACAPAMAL
# Sequence (Q9WU38 whole entry, stated change not applied): as the sequence (Q9WU38 whole entry) above
# Sequence (Q9WU39 whole entry, stated change not applied): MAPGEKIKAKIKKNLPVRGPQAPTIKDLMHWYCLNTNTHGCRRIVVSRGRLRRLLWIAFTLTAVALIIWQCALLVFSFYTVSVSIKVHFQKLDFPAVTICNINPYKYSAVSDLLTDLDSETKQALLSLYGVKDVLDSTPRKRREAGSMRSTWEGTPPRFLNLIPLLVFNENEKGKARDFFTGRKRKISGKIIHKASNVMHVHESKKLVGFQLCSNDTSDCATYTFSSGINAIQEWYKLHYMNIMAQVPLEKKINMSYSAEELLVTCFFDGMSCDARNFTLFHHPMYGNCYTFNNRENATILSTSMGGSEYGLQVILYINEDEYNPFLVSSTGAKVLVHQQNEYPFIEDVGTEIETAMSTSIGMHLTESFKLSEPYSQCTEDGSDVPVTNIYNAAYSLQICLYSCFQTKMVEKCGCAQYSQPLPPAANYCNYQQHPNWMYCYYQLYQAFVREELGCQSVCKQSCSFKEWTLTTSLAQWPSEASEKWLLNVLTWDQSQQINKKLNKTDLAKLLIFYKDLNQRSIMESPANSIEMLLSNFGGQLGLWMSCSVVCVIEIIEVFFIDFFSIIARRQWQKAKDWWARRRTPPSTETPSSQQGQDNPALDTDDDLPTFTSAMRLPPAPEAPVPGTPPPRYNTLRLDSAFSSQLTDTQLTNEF
# method: Two-electrode voltage clamp, amiloride-sensitive whole cell Na+ current in Xenopus oocytes expressing wild-type αβγ ENaC
# Type: cell-based
# settings: amiloride-sensitive current, 3 min perfusion with peptide (FIG. 3A); read-out: IC50, inhibition of wild-type αβγ
quantity_kind: IC50 (nM)
Give just the number in nM; leave the unit off.

State its IC50 for this substance: Ac-DLRGALPHPLQRLRTPPPPNPARSAR-NH2 [α-26]
2800
